Numbers sourced from ChEMBL document CHEMBL4808148.

- Study system: Protein deacetylase HDAC6 (Homo sapiens, UniProt Q9UBN7)
- Sequence (Q9UBN7 whole entry): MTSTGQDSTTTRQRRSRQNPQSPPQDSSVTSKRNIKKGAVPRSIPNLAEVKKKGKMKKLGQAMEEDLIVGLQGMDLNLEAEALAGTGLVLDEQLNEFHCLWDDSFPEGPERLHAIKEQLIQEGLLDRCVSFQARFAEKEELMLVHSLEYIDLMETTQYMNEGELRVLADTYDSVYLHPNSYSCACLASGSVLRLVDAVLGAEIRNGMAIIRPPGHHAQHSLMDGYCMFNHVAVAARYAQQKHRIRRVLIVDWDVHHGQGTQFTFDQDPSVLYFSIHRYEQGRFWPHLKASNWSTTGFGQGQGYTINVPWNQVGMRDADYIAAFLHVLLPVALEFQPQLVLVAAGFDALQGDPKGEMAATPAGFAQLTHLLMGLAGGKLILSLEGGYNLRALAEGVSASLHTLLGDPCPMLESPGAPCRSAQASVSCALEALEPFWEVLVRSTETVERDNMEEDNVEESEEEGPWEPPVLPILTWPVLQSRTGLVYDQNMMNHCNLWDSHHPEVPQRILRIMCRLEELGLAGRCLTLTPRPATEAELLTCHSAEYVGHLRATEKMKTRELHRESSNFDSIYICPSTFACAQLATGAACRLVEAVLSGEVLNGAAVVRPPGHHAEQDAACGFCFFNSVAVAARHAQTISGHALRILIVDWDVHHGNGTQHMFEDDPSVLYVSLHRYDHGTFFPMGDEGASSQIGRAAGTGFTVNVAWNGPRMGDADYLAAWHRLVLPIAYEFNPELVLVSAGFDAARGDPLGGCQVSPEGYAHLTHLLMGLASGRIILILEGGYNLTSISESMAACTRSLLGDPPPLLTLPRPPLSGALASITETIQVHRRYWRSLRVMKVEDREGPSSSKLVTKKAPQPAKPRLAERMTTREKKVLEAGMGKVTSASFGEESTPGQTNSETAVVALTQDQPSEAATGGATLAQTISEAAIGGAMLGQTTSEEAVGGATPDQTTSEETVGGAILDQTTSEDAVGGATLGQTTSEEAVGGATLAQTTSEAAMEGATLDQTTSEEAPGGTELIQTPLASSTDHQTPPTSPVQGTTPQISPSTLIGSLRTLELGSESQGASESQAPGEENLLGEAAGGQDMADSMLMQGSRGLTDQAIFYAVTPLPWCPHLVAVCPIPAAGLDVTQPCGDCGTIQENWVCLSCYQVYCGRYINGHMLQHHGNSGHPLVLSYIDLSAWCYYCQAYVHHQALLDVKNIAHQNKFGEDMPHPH
Label key: 1 means IC50 under 2000 nM; 0 means IC50 of 2000 nM or more.

Data request: Please determine if `Cn1c(/C=C/C(=O)NO)ccc1/C=C/C(=O)c1cccc(F)c1` is below 2000 nM in terms of IC50.
Data returned: 1

----------
// each record: one item and its IC50 for UniProt Q9UBN7

Data request: Returns the measured IC50 for the input compound. Input: `O=c1cc(-c2ccccc2)oc2cc(O)cc(O)c12`
Data returned: 0.534 µM

Data request: Okay, and `O=c1cc(-c2ccc(O)cc2)oc2cc(O)cc(O)c12` ?
Data returned: 1.03 µM

Data request: Okay, and `O=C(O)[C@@H](c1ccc(OCc2ccc3ccccc3n2)cc1)C1CCCC1` ?
Data returned: 0.656 µM

Data request: Okay, and `O=c1c(-c2ccc(O)cc2)coc2cc(O)cc(O)c12` ?
Data returned: 1.89 µM

Data request: Okay, and CC(C(=O)O)c1ccc(N2Cc3ccccc3C2=O)cc1 (stereo not given) ?
Data returned: 0.513 µM

Data request: Okay, and `Cc1coc2c1C(=O)C(=O)c1c-2ccc2c(C)cccc12` ?
Data returned: 2.15 µM

Data request: Okay, and `O=C(Oc1cccc2cccnc12)c1ccccc1` ?
Data returned: 0.932 µM

Data request: Okay, and `NC(=O)Nc1sc(-c2ccc(F)cc2)cc1C(N)=O` ?
Data returned: 1.97 µM

Data request: Okay, and `CCc1ccc(OCc2ccccc2C(=O)Nc2ccc3nc(C)cc(N)c3c2)cc1` ?
Data returned: 3.49 µM

Data request: Okay, and `O=c1cc(-c2cccc3c2Sc2ccccc2S3)oc(N2CCOCC2)c1` ?
Data returned: 4.8 µM

----------
- Study system: Protein deacetylase HDAC6 (Homo sapiens)
- Test settings: at 10 µM
Attribute measured: inhibition
Kindly format the answer as number then unit.

As a guide, the following entries are already answered.
Compound | inhibition
COC(=O)Nc1nc2cc(SC(C)C)ccc2[nH]1 | 87.7%
Cc1ccc(-c2cn3c4c(sc3n2)CCCC4)cc1 | 109%
CC(C)Oc1ccc2c(=O)c3cc(C(=O)O)ccc3oc2c1 | 64.7%
NCCNc1ccc(NCCN)c2c1C(=O)c1ccncc1C2=O | 108%
O=C(/C=C/c1ccc(O)c(O)c1)c1ccc(O)cc1O | 96.9%
COc1ccc(-c2nc(N3CCOCC3)c3sc(CN(C)c4ncc(C(=O)NO)cn4)cc3n2)cn1 | 104%
CCN(CC)C(=O)Nc1ccc(OCC(O)CNC(C)(C)C)c(C(C)=O)c1 (stereo unspecified) | 27.1%
O=c1c2ccccc2nc2n1CCCCC2 | 90.9%
OCCN1CCN(CC/C=C2/c3ccccc3Sc3ccc(Cl)cc32)CC1 | 76.6%
Cc1ccc(-c2ccc(C)cn2)nc1 | 99.5%

Attention now turns to another entry.
Data request: Returns the measured inhibition for the input compound. Input: `O=C1Cc2c([nH]c3ccc(Br)cc23)-c2ccccc2N1`
Data returned: 96.6%

----------
- Study system: UniProtKB Q9UBN7
- Test settings: at 10 µM
Attribute measured: inhibition
Kindly format the answer as number then unit.

Structure smiles string | Measured result
CNC(=O)c1ccccc1Sc1ccc2c(/C=C/c3ccccn3)n[nH]c2c1 | 103%
Cc1[nH]cnc1-c1ccc(Cl)cc1 | 94.8%
Cc1cc(C)c(N)c(C#Cc2cccc(F)c2)n1 | 74.2%
NS(=O)(=O)c1cc2c(cc1Cl)N=C(CSCc1ccccc1)NS2(=O)=O | 42.3%
CC(C)c1ccc(-c2cc(=O)c3ccccc3o2)cc1 | 99.4%

Attention now turns to another entry.
Data request: Returns the measured inhibition for the input molecule. Input: `O=c1cc(-c2cccc3c2Sc2ccccc2S3)oc(N2CCOCC2)c1`
Data returned: 79.3%
